biological target: CDK2/Cyclin E1 (Homo sapiens (Human), UniProt P24941); assay: CDK2/Cyclin E1 HTRF enzyme activity assay; details: 1 mM ATP; CDK2/Cyclin E1 0.25 nM; 60 minutes at room temperature
pIC50: −log10 of the molar value.
Recorded measurements of pIC50, one per entry

Query :: Reported pIC50 for `CC(C)Oc1c(-c2cn[nH]c2)ncn2nc(N[C@H]3CCN(S(=O)(=O)CCCN(C)C)C[C@H]3C)nc12` : what is it?
Result :: ≥ 7.70
